- Measured on: paLpxC (Pseudomonas aeruginosa (strain ATCC 15692 / DSM 22644 / CIP 104116 / JCM 14847 / LMG 12228 / 1C / PRS 101 / PAO1), UniProt P47205)
- Sequence (P47205 1-299): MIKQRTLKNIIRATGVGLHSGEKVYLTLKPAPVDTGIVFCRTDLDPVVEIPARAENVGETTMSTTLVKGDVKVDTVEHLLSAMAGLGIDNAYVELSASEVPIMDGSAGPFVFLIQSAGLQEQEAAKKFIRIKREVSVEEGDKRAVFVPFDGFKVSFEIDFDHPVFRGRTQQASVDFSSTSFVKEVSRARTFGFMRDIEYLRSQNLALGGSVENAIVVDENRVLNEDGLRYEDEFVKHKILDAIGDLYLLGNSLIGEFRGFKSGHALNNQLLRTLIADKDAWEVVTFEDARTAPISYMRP
- Measurement notes: biochemical
- Format: binding
- Measurement setup: read-out: Kon (μM^−1s^−1)
# label = yes (1) if kon >= 40 µM⁻¹ s⁻¹ else no (0)

Example entries begin here.
CC(CCn1ccc(-c2ccc(-c3cn(Cc4ccc(F)cc4)nn3)cc2)cc1=O)(C(=O)NO)S(C)(=O)=O (racemic)    no (0)
CC(CCn1ccc(-c2ccc(-c3cn(Cc4ccncn4)nn3)cc2)cc1=O)(C(=O)NO)S(C)(=O)=O (racemic)    yes (1)
CC(CCn1ccc(-c2ccc(-c3cn(CC45CC(C4)C5)nn3)cc2)cc1=O)(C(=O)NO)S(C)(=O)=O (racemic)    yes (1)
CC(CCn1ccc(-c2ccc(-c3cn(CC4CC4)nn3)cc2)cc1=O)(C(=O)NO)S(C)(=O)=O (racemic)    no (0)
C=CCn1cc(-c2ccc(-c3ccn(CCC(C)(C(=O)NO)S(C)(=O)=O)c(=O)c3)cc2)nn1 (racemic)    yes (1)

Threshold query (kon >= 40 µM⁻¹ s⁻¹) on CC(CCn1ccc(-c2ccc(C(=O)NCc3ccccc3)cc2)cc1=O)(C(=O)NO)S(C)(=O)=O (racemic)
no (0)

Threshold query (kon >= 40 µM⁻¹ s⁻¹) on CC(CCn1ccc(-c2ccc(-c3cn(Cc4ccccc4)nn3)cc2)cc1=O)(C(=O)NO)S(C)(=O)=O (racemic)
yes (1)

----------
This listing pairs compounds with measured PAE (h) 4x.
- Tested on: P. aeruginosa PAO1
- Measurement notes: Post-antibiotic effect (PAE) in P. aeruginosa PAO1
- Measurement setup: PAO1, 4xMIC for 1 h, 37° C.
Field format: number, assumed h, no unit text.

Use the examples below as a reference point.
CC(CCn1ccc(-c2ccc(-c3cn(CC4CC4)nn3)cc2)cc1=O)(C(=O)NO)S(C)(=O)=O (racemic) [PT908]    1.6
CC(CCn1ccc(-c2ccc(-n3nccn3)cc2)cc1=O)(C(=O)NO)S(C)(=O)=O (racemic) [PT805]    1.4
CC(CCn1ccc(-c2ccc(-c3cn(Cc4ccc(F)cc4)nn3)cc2)cc1=O)(C(=O)NO)S(C)(=O)=O (racemic) [PT909]    1.7

Next, consider the following compound.
Specify PAE (h) 4x for COc1ccc(-c2ccc(CNC3(C(=O)NO)CCS(=O)(=O)CC3)cc2)c(F)c1 [PT920] and stop.
1.0
